- testTarget: human Tie2 (Homo sapiens)
- Construct: corresponding to the intracellular domain amino acids 776-1124 was generated by PCR
- Sequence (Q02763 776-1124): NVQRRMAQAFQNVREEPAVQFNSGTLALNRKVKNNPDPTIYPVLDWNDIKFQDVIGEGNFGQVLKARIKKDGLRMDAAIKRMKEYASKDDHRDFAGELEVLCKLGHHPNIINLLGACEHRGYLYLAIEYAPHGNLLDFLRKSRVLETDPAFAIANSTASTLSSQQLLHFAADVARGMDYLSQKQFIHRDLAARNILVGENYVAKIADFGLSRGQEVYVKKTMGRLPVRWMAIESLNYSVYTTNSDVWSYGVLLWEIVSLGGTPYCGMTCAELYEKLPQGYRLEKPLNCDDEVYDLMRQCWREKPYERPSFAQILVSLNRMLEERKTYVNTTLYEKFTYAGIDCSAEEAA
- assayName: phosphorylation of PLC by Tie2 (GST-Tie2), FlashPlate
- testContext: read-out: TIE2 IC 50
recordedMetric: IC50 (nM)

Worked cases, answers included:
Cc1cccc(NC(=O)Nc2ccc(-c3c(C(N)=O)[nH]c4ccccc34)cc2)c1: 19
COCCOc1ccc2c(-c3ccc(NC(=O)Nc4cc(C(F)(F)F)ccc4F)cc3)c(C(N)=O)[nH]c2c1: 7
NC(=O)c1[nH]c2ccccc2c1-c1ccc(NC(=O)Nc2cc(C(F)(F)F)ccc2F)cc1: 3
NC(=O)c1[nH]c2ccccc2c1-c1ccc(NC(=O)Nc2ccc(OC(F)F)cc2)cc1: 291
NC(=O)c1[nH]c2ccccc2c1-c1ccc(NC(=O)Nc2ccc(OC(F)(F)F)cc2)cc1: 105
NC(=O)c1[nH]c2cccnc2c1-c1ccc(NC(=O)Nc2cc(C(F)(F)F)ccc2F)cc1: 4

(P) NC(=O)c1[nH]c2ccc[n+]([O-])c2c1-c1ccc(NC(=O)Nc2cc(C(F)(F)F)ccc2F)cc1
(Q) NC(=O)c1[nH]c2ccccc2c1-c1ccc(NC(=O)Nc2ccc(C(F)(F)F)c(Cl)c2)cc1
Q: Identify the item whose IC50 is the smaller number: P or Q Please reply using the label of the selected record.
Ans: Q
(Q: 17 nM, P: 32 nM)

---

In this section we review reported melting point values for a set of molecules.

Cc1ccc(-n2nc(C(C)(C)C)cc2NC(=O)Nc2ccc(-c3c(C(N)=O)[nH]c4ccccc34)cc2)cc1: > 260 °C

Q: I'd like to know its melting point. The molecule in question is Cc1cccc(NC(=O)Nc2ccc(-c3c(C(N)=O)[nH]c4ccccc34)cc2)c1
Ans: 140 to 142 °C

Q: I'd like to know its melting point. The molecule in question is NC(=O)c1[nH]c2ccccc2c1-c1ccc(NC(=O)Nc2ccccc2F)cc1
Ans: 146 to 148 °C

Q: I'd like to know its melting point. The molecule in question is NC(=O)c1[nH]c2ccccc2c1-c1ccc(NC(=O)Nc2ccccc2)cc1
Ans: 232 to 234 °C

Q: I'd like to know its melting point. The molecule in question is NC(=O)c1[nH]c2ccccc2c1-c1ccc(NS(=O)(=O)c2cc(C(F)(F)F)ccc2F)cc1
Ans: 176 to 178 °C

Q: I'd like to know its melting point. The molecule in question is Cc1ccc(F)c(NC(=O)Nc2ccc(-c3c(C(N)=O)[nH]c4ccccc34)cc2)c1
Ans: 220 °C

Q: I'd like to know its melting point. The molecule in question is NC(=O)c1[nH]c2ccccc2c1-c1ccc(NC(=O)Nc2ccc(C(F)(F)F)c(Cl)c2)cc1
Ans: 168 to 170 °C

Q: I'd like to know its melting point. The molecule in question is COc1ccc(C(F)(F)F)cc1NC(=O)Nc1ccc(-c2c(C(N)=O)[nH]c3ccccc23)cc1
Ans: 178 to 180 °C

---

- testTarget: human KDR enzyme (Homo sapiens, UniProt P35968)
- Construct: The cytoplasmic domain of the human KDR enzyme was cloned in the form of a GST fusion; GST
- Sequence (P35968 786-1356 limits assumed): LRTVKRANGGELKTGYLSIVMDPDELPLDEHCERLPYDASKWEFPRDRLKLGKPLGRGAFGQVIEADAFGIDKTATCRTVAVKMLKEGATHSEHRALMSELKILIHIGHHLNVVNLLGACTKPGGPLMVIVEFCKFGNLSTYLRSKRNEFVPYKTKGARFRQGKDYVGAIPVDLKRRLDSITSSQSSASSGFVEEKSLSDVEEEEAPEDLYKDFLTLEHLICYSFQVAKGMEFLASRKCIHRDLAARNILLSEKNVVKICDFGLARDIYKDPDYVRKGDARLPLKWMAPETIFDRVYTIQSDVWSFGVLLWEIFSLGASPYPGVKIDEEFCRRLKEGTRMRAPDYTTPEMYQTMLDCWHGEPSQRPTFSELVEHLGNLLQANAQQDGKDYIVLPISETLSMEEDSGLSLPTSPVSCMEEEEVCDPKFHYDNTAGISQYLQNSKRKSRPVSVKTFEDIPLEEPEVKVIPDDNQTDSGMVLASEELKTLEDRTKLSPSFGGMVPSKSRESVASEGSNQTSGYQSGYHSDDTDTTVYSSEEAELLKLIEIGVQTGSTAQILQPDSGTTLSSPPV
- assayName: phosphorylation of substrate by the KDR enzyme in vitro, scintillation technique
- testContext: read-out: KDR IC 50
recordedMetric: IC50 (nM)

NC(=O)c1[nH]c2ccc[n+]([O-])c2c1-c1ccc(NC(=O)Nc2cc(C(F)(F)F)ccc2F)cc1 [Example 21]: 195
NC(=O)c1[nH]c2ccccc2c1-c1ccc(NC(=O)Nc2cc(C(F)(F)F)ccc2F)cc1 [Example 1]: 35

(1) NC(=O)c1[nH]c2ccccc2c1-c1ccc(NC(=O)Nc2ccccc2)cc1 [Example 3]
(2) NC(=O)c1[nH]c2c(NCCO)cccc2c1-c1ccc(NC(=O)Nc2cc(C(F)(F)F)ccc2F)cc1 [Example 31]
(3) NC(=O)c1[nH]c2ccccc2c1-c1ccc(NC(=O)Nc2ccc(OC(F)(F)F)cc2)cc1 [Example 11]
(4) NC(=O)c1[nH]c2c(N)cccc2c1-c1ccc(NC(=O)Nc2cc(C(F)(F)F)ccc2F)cc1 [Example 30]
Q: List by increasing IC50. Order the labels as requested and give them as your answer.
Ans: 4, 2, 3, 1
(4: 31 nM, 2: 75 nM, 3: 153 nM, 1: 1520 nM)

(A) NC(=O)c1[nH]c2ccccc2c1-c1ccc(NC(=O)Nc2ccccc2F)cc1 [Example 7]
(B) Cc1cccc(NC(=O)Nc2ccc(-c3c(C(N)=O)[nH]c4ccccc34)cc2)c1 [Example 4]
Q: When A and B are compared, which has the higher number for IC50? Please reply using the label of the selected record.
Ans: A
(A: 1750 nM, B: 181 nM)
